Molecular target: Cytochrome P450 2D6 (Homo sapiens) (UniProt P10635)
Sequence (P10635 whole entry, looked up): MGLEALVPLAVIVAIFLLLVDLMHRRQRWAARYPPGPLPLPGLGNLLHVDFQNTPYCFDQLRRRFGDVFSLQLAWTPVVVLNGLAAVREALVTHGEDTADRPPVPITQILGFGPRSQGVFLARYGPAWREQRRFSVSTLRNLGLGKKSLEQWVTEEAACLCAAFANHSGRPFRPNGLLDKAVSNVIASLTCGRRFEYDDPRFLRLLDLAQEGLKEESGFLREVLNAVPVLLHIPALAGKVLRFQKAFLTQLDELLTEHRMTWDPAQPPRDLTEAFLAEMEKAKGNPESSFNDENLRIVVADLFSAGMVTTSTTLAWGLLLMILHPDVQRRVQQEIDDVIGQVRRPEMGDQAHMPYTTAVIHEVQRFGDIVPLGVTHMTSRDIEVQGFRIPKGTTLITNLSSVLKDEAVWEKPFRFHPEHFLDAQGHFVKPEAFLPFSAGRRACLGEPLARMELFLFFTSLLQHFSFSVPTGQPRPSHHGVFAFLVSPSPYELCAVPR
Assay: Cytochrome panel assay with activity outcomes
Settings: recombinant CYP, pro-luciferin dealkylation, luminescence, p450-cyp2d6; series mostly up to 57.1 µM
Among all 16,000 compounds or so, about 2,600 (16%) were called active. Roughly 20% stayed inconclusive and do not appear here. The list is a sample of the results.
Property Measured: AC50

Compound | AC50
COc1ccccc1CN1CC[C@@]2(CCCN(S(C)(=O)=O)C2)C1 | 0.316 µM (active)
O=c1cnc2cnc(Nc3ccccc3)nc2n1CCc1ccccc1 | inactive
COc1ncc2ncc(=O)n(C)c2n1 | inactive
Cc1ccc(C(=O)Nc2cccc(-c3cnc4ccccc4n3)c2)cc1 | inactive
COc1ccc(C(NC(=O)c2ccc(-c3ccccc3)cc2)c2ccccc2)cc1 (stereo not given) | inactive

Req: Reported AC50 for Cytochrome P450 2D6 (Homo sapiens) (UniProt P10635), given CN1CCC(=C2c3ccccc3Sc3ccccc32)CC1 ?
Resp: 3.98 µM (active)

Req: // lookup AC50 | system=Cytochrome P450 2D6 (Homo sapiens) (UniProt P10635) | key= O=C(NCc1n[nH]c(=S)n1-c1cccc(Cl)c1)c1ccc(S(=O)(=O)N2CCCC2)cc1
Resp: inactive

Recorded values, source PubChem BioAssay AID1851.
